Consider the following compounds; for each one, report its TGI.
- Test system: HT29 colon
- assay-explanation: NCI tumour cell line growth inhibition, 48 h
Give bare numbers, in µM.

Before answering, review these 2 worked examples.
- COc1ccc2cn3c4ccc(O)cc4[nH]c(=O)c3c2c1: 2.85
- C#CCn1c2c(c3ccccc3c1=O)C(=O)c1ccccc1-2: 65.9

List reported TGI for each of these compounds:
1. COC(=O)C1=C(C(=O)OC)N(c2ccncc2)C(c2ccco2)=CC1c1ccccc1[N+](=O)[O-] (centres undefined)
2. CN(CCCN1CCCC1)CCCN(C)C(=O)Cc1ccc(Cl)c(Cl)c1

[reply]
1. 3.95
2. 17.5

I need TGI for every entry listed below, if you could help.
1. CCC1C[N+]2=C(c3cc(OC)c(OC)cc3CC2)c2c1cc1n2CCc2cc(OC)c(OC)cc2-1 (centres undefined)
2. COc1ccc(-n2nc(C(=O)NCC(=O)Nc3nc4cc(OC)ccc4s3)c3ccccc3c2=O)cc1
3. CCN1C(=O)N[C@H]2[C@@H]3NC(=O)c4ccc(Cl)n4[C@@H]3C[C@]21O
4. CS(=O)(=O)Nc1cccc(-c2ccc3ncnc(Nc4cncc(Cl)c4)c3c2)c1

[reply]
1. 20.3
2. 1.78
3. 10.4
4. 4.65

This collection of values is drawn from PubChem BioAssay (NCI).
